Tested on: B16
Test: Antimigratory activity against mouse B16 cells assessed as inhibition of MMP2 mRNA level after 24 hrs by SYBR staining based real-time qPCR assay
Type: functional, cell-based
Settings: B16, 24 h
ATTRIBUTE_MEASURED: IC50 (µM)

C=C[C@H]1CC[C@H]2[C@@H]3CC[C@H]4CC(=O)/C(=C5\NC=Cc6nc[nH]c65)C(=O)[C@]4(C)[C@H]3CC[C@]12C 5.8
C=C[C@H]1CC[C@H]2[C@@H]3CC[C@H]4CC(=O)/C(=C5\NCCc6nc[nH]c65)C(=O)[C@]4(C)[C@H]3CC[C@]12C 6.6

---

System: B16
Assay: Antimigratory activity against mouse B16 cells assessed as inhibition of VEGF mRNA level after 24 hrs by SYBR staining based real-time qPCR assay
Assay type: functional, cell-based
Settings: B16, 24 h
pIC50: −log10 of the molar value.
ATTRIBUTE_MEASURED: pIC50

C=C[C@H]1CC[C@H]2[C@@H]3CC[C@H]4CC(=O)/C(=C5\NC=Cc6nc[nH]c65)C(=O)[C@]4(C)[C@H]3CC[C@]12C 5.12
C=C[C@H]1CC[C@H]2[C@@H]3CC[C@H]4CC(=O)/C(=C5\NCCc6nc[nH]c65)C(=O)[C@]4(C)[C@H]3CC[C@]12C 5.08
